Test: Pharmacokinetics in mouse plasma at conclusion of xenograft study
Assay type: in vivo
Settings: female, athymic nude; mouse plasma, final dose, 100 mg/kg oral gavage twice daily
METRIC NAME: AUC (µg·h/mL)
Give bare numbers, in µg·h/mL.

Input line: Fill in the blank: the reported AUC of CC1=C(c2ccc(O)cc2)[C@H](c2ccc(OCCN3CC[C@@H](C)C3)cc2)Oc2cc(O)ccc21 is ____.
Output line: 8.2

###

Assay: Pharmacokinetics in mouse plasma at conclusion of xenograft study
Assay type: in vivo
Settings: female, athymic nude; mouse plasma, final dose, 100 mg/kg oral gavage twice daily
METRIC NAME: Tmax (h)
Numbers only, in h.

Input line: Fill in the blank: the reported Tmax of CC1=C(c2ccc(O)cc2)[C@H](c2ccc(OCCN3CC[C@@H](C)C3)cc2)Oc2cc(O)ccc21 is ____.
Output line: 1.5
